Reported inhibition is given for each of the following compounds.
TEST METHOD NOTES: LAMP-1 surface exposure blockers, TALL-104 cells – cell-based, flow cytometry, MLPCN library, primary screen (AID 651702)
PARTICULARS: TALL-104 LAMP-1 surface exposure, at 10 µM, hits give high values, cells stimulated with thapsigargin and PMA
The whole screen tested about 360,000 compounds, of which about 2,400 (0.67%) were called active. Shown is part of a subset that was picked to be rich in actives.
Record the value in %, omitting the unit from your answer.

For this compound ( "O=C(CCn1nnc2ccccc21)OCC(=O)c1ccc([N+](=O)[O-])cc1" ), measured inhibition is -4.6

For this compound ( "Cc1ccc2oc(C(=O)N3CCN(C)C[C@@H]3C(C)C)c(C)c2c1" ), measured inhibition is 1.3

For this compound ( C/C=C/c1ccc(OCC(O)CN2CCCCCCC2)c(OC)c1 (stereo not given) ), measured inhibition is -1

For this compound ( "Cc1c(Cl)cccc1NC(=O)CCC(=O)N/N=C/c1ccco1" ), measured inhibition is 4.7

For this compound ( "Cc1ccc(NC(=O)c2cc(-c3ccc(C)o3)nc3ccccc23)nc1" ), measured inhibition is 71.4
